// data source = paper PMC3962784

- Assayed system: UniProt P35750
- Sequence (P35750 whole entry): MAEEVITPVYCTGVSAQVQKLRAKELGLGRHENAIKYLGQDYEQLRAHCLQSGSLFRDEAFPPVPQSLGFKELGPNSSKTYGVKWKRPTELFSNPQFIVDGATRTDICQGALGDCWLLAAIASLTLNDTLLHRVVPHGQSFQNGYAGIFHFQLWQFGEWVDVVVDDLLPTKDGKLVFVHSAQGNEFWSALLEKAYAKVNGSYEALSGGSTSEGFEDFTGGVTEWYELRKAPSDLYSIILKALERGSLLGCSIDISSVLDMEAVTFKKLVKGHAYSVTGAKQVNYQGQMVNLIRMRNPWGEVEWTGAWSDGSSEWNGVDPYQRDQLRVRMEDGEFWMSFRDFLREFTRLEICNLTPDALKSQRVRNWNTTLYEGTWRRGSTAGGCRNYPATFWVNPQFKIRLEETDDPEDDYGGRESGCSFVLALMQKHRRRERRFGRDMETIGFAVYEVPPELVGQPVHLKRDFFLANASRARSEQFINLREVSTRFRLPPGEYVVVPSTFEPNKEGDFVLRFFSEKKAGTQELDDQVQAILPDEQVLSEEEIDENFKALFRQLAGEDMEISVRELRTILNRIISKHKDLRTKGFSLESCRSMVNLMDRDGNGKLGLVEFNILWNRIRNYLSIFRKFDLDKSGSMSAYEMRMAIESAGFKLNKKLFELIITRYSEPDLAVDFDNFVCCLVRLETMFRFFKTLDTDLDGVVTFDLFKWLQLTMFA
- Sequence (P04574 whole entry partner): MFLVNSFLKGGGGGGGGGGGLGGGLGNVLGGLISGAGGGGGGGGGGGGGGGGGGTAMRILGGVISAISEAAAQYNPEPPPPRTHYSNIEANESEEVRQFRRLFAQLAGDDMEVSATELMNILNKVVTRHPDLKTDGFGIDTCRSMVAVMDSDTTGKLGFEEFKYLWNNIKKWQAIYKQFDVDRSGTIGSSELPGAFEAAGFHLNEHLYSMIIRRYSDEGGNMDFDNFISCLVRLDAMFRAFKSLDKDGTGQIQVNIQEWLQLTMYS
- Assay overview: Calpain inhibition kinetics, Suc-LLVY-AMC progress curves
- Format: biochemical
- Conditions: inhibition rate constant; full length Cal1
Hi, to clarify the labels: criterion met covers Calpain1 ki from 0.1 s⁻¹ upward, criterion not met covers anything below 0.1 s⁻¹.

[
  {
    "Compound": "O=C(Nc1nc(-c2ccc(F)cc2)cs1)[C@H](Cc1cscn1)NC(=O)[C@H]1O[C@@H]1C(=O)O",
    "Assayed system": "UniProt P35750",
    "Discrete label": "criterion not met"
  },
  {
    "Compound": "C#Cc1ccc(-c2csc(NC(=O)[C@H](Cc3cscn3)NC(=O)[C@H]3O[C@@H]3C(=O)O)n2)cc1",
    "Assayed system": "UniProt P35750",
    "Discrete label": "criterion met"
  },
  {
    "Compound": "CC(C)C[C@H](NC(=O)[C@H]1O[C@@H]1C(=O)O)C(=O)Nc1nc(-c2ccc(F)cc2)cs1 [22a]",
    "Assayed system": "UniProt P35750",
    "Discrete label": "criterion met"
  },
  {
    "Compound": "CC(C)C[C@H](NC(=O)[C@H]1O[C@@H]1C(=O)O)C(=O)NCCCCN=C(N)N [E-64, reference compound]",
    "Assayed system": "UniProt P35750",
    "Discrete label": "criterion met"
  }
]
